Target: T1, TIM-3 protein on human peripheral blood mononuclear lymphocytes (PBMC) (human, UniProt Q8TDQ0 22-301)
T1 sequence: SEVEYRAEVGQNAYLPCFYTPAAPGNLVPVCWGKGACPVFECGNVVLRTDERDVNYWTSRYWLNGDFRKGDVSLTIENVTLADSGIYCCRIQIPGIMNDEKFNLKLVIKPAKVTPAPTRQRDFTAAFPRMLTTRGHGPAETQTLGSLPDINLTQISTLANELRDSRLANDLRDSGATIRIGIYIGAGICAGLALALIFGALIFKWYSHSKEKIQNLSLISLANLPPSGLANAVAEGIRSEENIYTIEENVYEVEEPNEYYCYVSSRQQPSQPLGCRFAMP
Assay: cell-based or functional assay
quantity measured: IFN-γ production (donor X); antibody 10 µg/ml, N = 1 (pg/mL)
Kindly provide the numeric value in pg/mL only, without the unit symbol.

Examples with answers:
134H3G6 fully human TIM-3 antibody (human IgG4, kappa) (antibody, V domains shown) VH: EVQLVESGGGLVQPGGSLRLSCAASGFTFSNSWMTWVRQAPGKGLEWVANIKQAGTEKYYVDSVKGRFTISRDNAKNSLYLQMNSLRAEDTAVYYCNSGSNYFDYWGQGTLVTVSS VL: EIVMTQSPATLSVSPGERATLSCRARQNFYSNLAWYQQKPGQAPRLLIYGASTRATGIPARFSGSGSGTEFTLTISSLQSEDFAVYYCQQYNNWPLTFGGGTKVEIK	3460
34B6D8 fully human TIM-3 antibody (human IgG4, kappa) (antibody, V domains shown) VH: EVQLVESGGGLVQPGGSLRLSCAASGFTFSTYWMTWVRQAPGKRLEWVANIKQGGGDKYYVDSVKGRFTISTDNAKNSLYLQMNSLRAEDTAVYYCARGSNWFDPWGQGTLVTVSS VL: EIVMTQSPATLSMSPGERATLSCRASQSVYDNLAWYQQKPGQAPRLLIYGASTRATGIPARFSGSGSGTEFTLTISSLQSEDFALYYCQQYTHWPITFGQGTRLEIK	2980

## Input Supply reported IFN-γ production (donor X); antibody 10 µg/ml, N = 1 belonging to this binder: 39E5H1 fully human TIM-3 antibody (human IgG4, kappa) (antibody, V domains shown) VH: EVQLVESGGGLVQPGGSLRLSCAASGFTFSSYWMSWVRQAPGKGLEWVANIKRGGSERYYVDSVKGRFTISGDNAKNSVYLQMNSLRAEDTAVYYCARGSNWFDPWGQGTLVTVSS VL: ETVMTQSPAILSVSPGERATLSCRASQSVYSNLAWYQQKLGQAPRLLIYDASTRATGIPARFSGSGSGTEFTLTISSLQSEDFAVYYCQQYNNWPITFGQGTRLEIK
## Output 3150
